The reported measurements were obtained from patent US6350731.

- Test system: Rb 38
- Method: competitive ELISA on antiserum Rb 38; coated antigen not given
Where no end group is shown, it is not given here.
Quantity name: IC50 (nM)

P: Ac-ISRRLIDRTNANFLVWPPC [GP10]
Q: Ac-ISRRLIDRTNANFLC (not fully specified; printed as Ac-25I-S-R-R-L-I-D-R-T-N-A-N-F-L38-C) [GP4]
Challenge: Which of the two gives a bigger number for IC50: P or Q ? Reply briefly: the label of your chosen item.
Response given: Q
